Every entry's value here was drawn from paper PMC10885153.

We begin with a simple list: items and their reported Papp at 10 µM.
test: in vitro; conditions: PAMPA, pH 7.4, PAMPA Pe_avg
Positions of bridges follow the written chain, without caps; N, C: chain ends. Non-standard residues stand in square brackets, D forms with d. Residues, ends and D or L forms follow the SMILES beside them. NMeC = CN[C@@H](CS)C(=O)O; NMeA = CN[C@@H](C)C(=O)O; dAbu = CC[C@@H](N)C(=O)O; dNMeA = CN[C@H](C)C(=O)O; Abu = CC[C@H](N)C(=O)O; Nleu = CC(C)CNCC(=O)O; NEtG = CCNCC(=O)O
ATTRIBUTE MEASURED: Papp at 10 µM (×10⁻⁶ cm/s)

# COMPOUND, ATTRIBUTE MEASURED, RESULT UNIT, QUANTITATIVE READOUT
rows = [
    ("CCOC(=O)[C@@H]1CSCC(=O)N[C@H](CC)C(=O)N(C)[C@@H](C)C(=O)N[C@@H](CC(C)C)C(=O)N2CCC[C@H]2C(=O)N(CC)CC(=O)N[C@@H](CC(C)C)C(=O)N(C)[C@H](C)C(=O)N[C@@H](CC(C)C)C(=O)N1C [JF206_ALD_DLLD_Ethyl] ({CH2CO}-[dAbu][NMeA]LP[NEtG]L[dNMeA]L[NMeC]-OEt; thioether N-9)", "Papp at 10 µM", "×10⁻⁶ cm/s", 0.016),
    ("CCOC(=O)[C@@H]1CSCC(=O)N[C@@H](CC)C(=O)N(C)[C@@H](C)C(=O)N[C@@H](CC(C)C)C(=O)N2CCC[C@H]2C(=O)N(CC)CC(=O)N[C@@H](CC(C)C)C(=O)N(C)[C@@H](C)C(=O)N[C@@H](CC(C)C)C(=O)N1C [JF206_ALL_LLLL_Ethyl] ({CH2CO}-[Abu][NMeA]LP[NEtG]L[NMeA]L[NMeC]-OEt; thioether N-9)", "Papp at 10 µM", "×10⁻⁶ cm/s", 0.678),
    ("CCOC(=O)[C@@H]1CSCC(=O)N[C@H](CC)C(=O)N(C)[C@@H](C)C(=O)N[C@@H](CC(C)C)C(=O)N2CCC[C@@H]2C(=O)N(CC(C)C)CC(=O)N[C@H](CC(C)C)C(=O)N(C)[C@H](C)C(=O)N[C@@H](CC(C)C)C(=O)N1C [JF206_ADD_DLDD_Isobutyl] ({CH2CO}-[dAbu][NMeA]L[dP][Nleu][dL][dNMeA]L[NMeC]-OEt; thioether N-9)", "Papp at 10 µM", "×10⁻⁶ cm/s", 0.118),
]

###

experiment: in vitro; conditions: dog, MDCK, pH 7.4
Positions of bridges follow the written chain, without caps; N, C: chain ends. Non-standard residues stand in square brackets, D forms with d. Residues, ends and D or L forms follow the SMILES beside them. Cha = N[C@@H](CC1CCCCC1)C(=O)O; NMeNva = CCC[C@H](NC)C(=O)O; NMeC = CN[C@@H](CS)C(=O)O; NMeA = CN[C@@H](C)C(=O)O; Nva = CCC[C@H](N)C(=O)O; Abu = CC[C@H](N)C(=O)O; NPrGly = CCCNCC(=O)O; NEtG = CCNCC(=O)O
We begin with a simple list: items and their reported Papp A→B at 3 h, 10 µM.

# COMPOUND, Papp A→B at 3 h, 10 µM
data = [
    ("CCC[C@@H]1NC(=O)[C@H](C)N(C)C(=O)[C@H](CC(C)C)NC(=O)CSC[C@@H](C(=O)OCC)N(C)C(=O)[C@H](CC(C)C)NC(=O)[C@H](C)N(C)C(=O)[C@H](CC(C)C)NC(=O)CN(CCC)C(=O)[C@H]2CCCN2C1=O [LA07] ({CH2CO}-L[NMeA][Nva][dP][NPrGly]L[NMeA]L[NMeC]-OEt; thioether N-9)", "8.4 ×10⁻⁶ cm/s"),
    ("CCCN1CC(=O)N[C@@H](CC(C)C)C(=O)N2CCC[C@@H]2C(=O)N(C)[C@@H](C)C(=O)N[C@@H](CC)C(=O)N(C)[C@@H](C)C(=O)N[C@@H](CC(C)C)C(=O)N(C)[C@H](C(=O)OCC)CSCC(=O)N[C@@H](CC(C)C)C1=O [LB04] ({CH2CO}-L[NPrGly]L[dP][NMeA][Abu][NMeA]L[NMeC]-OEt; thioether N-9)", "2.6 ×10⁻⁶ cm/s"),
    ("CCC[C@@H]1NC(=O)CN(CCC)C(=O)[C@H](CC(C)C)NC(=O)CSC[C@@H](C(=O)OCC)N(C)C(=O)[C@H](CC(C)C)NC(=O)[C@H](C)N(C)C(=O)[C@H](CC(C)C)NC(=O)[C@H](C)N(C)C(=O)[C@H]2CCCN2C1=O [LB07] ({CH2CO}-L[NPrGly][Nva][dP][NMeA]L[NMeA]L[NMeC]-OEt; thioether N-9)", "3.2 ×10⁻⁶ cm/s"),
    ("CCC[C@@H]1NC(=O)[C@H](C)N(C)C(=O)[C@H](CC(C)C)NC(=O)CSC[C@@H](C(=O)OCC)N(C)C(=O)[C@H](CC(C)C)NC(=O)[C@H](C)N(C)C(=O)[C@H](CC(C)C)NC(=O)[C@H](CCC)N(C)C(=O)[C@H]2CCCN2C1=O [LC07] ({CH2CO}-L[NMeA][Nva][dP][NMeNva]L[NMeA]L[NMeC]-OEt; thioether N-9)", "3.9 ×10⁻⁶ cm/s"),
    ("CCC[C@@H]1NC(=O)[C@H](C)N(C)C(=O)[C@H](CC(C)C)NC(=O)CSC[C@@H](C(=O)OCC)N(C)C(=O)[C@H](CC(C)C)NC(=O)[C@H](C)N(C)C(=O)[C@H](CC2CCCCC2)NC(=O)CN(CC)C(=O)[C@H]2CCCN2C1=O [LA09] ({CH2CO}-L[NMeA][Nva][dP][NEtG][Cha][NMeA]L[NMeC]-OEt; thioether N-9)", "5.1 ×10⁻⁶ cm/s"),
    ("CCOC(=O)[C@@H]1CSCC(=O)N[C@@H](CC(C)C)C(=O)N(C)[C@@H](C)C(=O)N[C@@H](CC(C)C)C(=O)N2CCC[C@@H]2C(=O)N(CC)CC(=O)N[C@@H](CC)C(=O)N(C)[C@@H](C)C(=O)N[C@@H](CC(C)C)C(=O)N1C [LA02] ({CH2CO}-L[NMeA]L[dP][NEtG][Abu][NMeA]L[NMeC]-OEt; thioether N-9)", "4.5 ×10⁻⁶ cm/s"),
]

###

assay: in vitro; conditions: dog, pH 7.4
Positions of bridges follow the written chain, without caps; N, C: chain ends. Non-standard residues stand in square brackets, D forms with d. Residues, ends and D or L forms follow the SMILES beside them. NMeC = CN[C@@H](CS)C(=O)O; NMeA = CN[C@@H](C)C(=O)O; dAbu = CC[C@@H](N)C(=O)O; dNMeA = CN[C@H](C)C(=O)O; Nva = CCC[C@H](N)C(=O)O; Abu = CC[C@H](N)C(=O)O; Nleu = CC(C)CNCC(=O)O; NPrGly = CCCNCC(=O)O; NEtG = CCNCC(=O)O
Strictly below 1 ×10⁻⁶ cm/s in Papp A→B at 3 h, 10 µM: rule met. Otherwise: rule not met.

# COMPOUND, GROUP LABEL
measured = [
    ("CCOC(=O)[C@@H]1CSCC(=O)N[C@H](CC)C(=O)N(CC(C)C)CC(=O)N[C@@H](CC(C)C)C(=O)N(C)[C@H](C)C(=O)N(C)[C@@H](C)C(=O)N[C@@H](CC(C)C)C(=O)N(C)[C@H](C)C(=O)N[C@@H](CC(C)C)C(=O)N1C [B1-6L] ({CH2CO}-[dAbu][Nleu]L[dNMeA][NMeA]L[dNMeA]L[NMeC]-OEt; thioether N-9)", "rule met"),
    ("CCC[C@@H]1NC(=O)CN(CCC)C(=O)[C@H](CC(C)C)NC(=O)CSC[C@@H](C(=O)OCC)N(C)C(=O)[C@H](CC(C)C)NC(=O)[C@H](C)N(C)C(=O)[C@H](CC(C)C)NC(=O)[C@H](C)N(C)C(=O)[C@H]2CCCN2C1=O [LB07] ({CH2CO}-L[NPrGly][Nva][dP][NMeA]L[NMeA]L[NMeC]-OEt; thioether N-9)", "rule not met"),
    ("CCOC(=O)[C@@H]1CSCC(=O)N[C@H](CC)C(=O)N(CC(C)C)CC(=O)N[C@H](CC(C)C)C(=O)N(C)[C@H](C)C(=O)N(C)[C@@H](C)C(=O)N[C@H](CC(C)C)C(=O)N(C)[C@H](C)C(=O)N[C@@H](CC(C)C)C(=O)N1C [B1-3D] ({CH2CO}-[dAbu][Nleu][dL][dNMeA][NMeA][dL][dNMeA]L[NMeC]-OEt; thioether N-9)", "rule met"),
    ("CCOC(=O)[C@@H]1CSCC(=O)N[C@@H](CC)C(=O)N(CC(C)C)CC(=O)N[C@@H](CC(C)C)C(=O)N(C)[C@H](C)C(=O)N(C)[C@@H](C)C(=O)N[C@H](CC(C)C)C(=O)N(C)[C@H](C)C(=O)N[C@@H](CC(C)C)C(=O)N1C [B1-1L] ({CH2CO}-[Abu][Nleu]L[dNMeA][NMeA][dL][dNMeA]L[NMeC]-OEt; thioether N-9)", "rule met"),
    ("CCOC(=O)[C@@H]1CSCC(=O)N[C@H](CC)C(=O)N(C)[C@@H](C)C(=O)N[C@@H](CC(C)C)C(=O)N2CCC[C@@H]2C(=O)N(CC(C)C)CC(=O)N[C@H](CC(C)C)C(=O)N(C)[C@H](C)C(=O)N[C@@H](CC(C)C)C(=O)N1C [A1-4dP] ({CH2CO}-[dAbu][NMeA]L[dP][Nleu][dL][dNMeA]L[NMeC]-OEt; thioether N-9)", "rule met"),
    ("CCOC(=O)[C@@H]1CSCC(=O)N[C@H](CC)C(=O)N(CC(C)C)CC(=O)N[C@@H](CC(C)C)C(=O)N(C)[C@H](C)C(=O)N(C)[C@@H](C)C(=O)N[C@H](CC(C)C)C(=O)N(C)[C@H](C)C(=O)N[C@@H](CC(C)C)C(=O)N1C [B1] ({CH2CO}-[dAbu][Nleu]L[dNMeA][NMeA][dL][dNMeA]L[NMeC]-OEt; thioether N-9)", "rule not met"),
    ("CCOC(=O)[C@@H]1CSCC(=O)N[C@@H](CC(C)C)C(=O)N(CC)CC(=O)N[C@@H](CC(C)C)C(=O)N2CCC[C@@H]2C(=O)N(C)[C@@H](C)C(=O)N[C@@H](CC)C(=O)N(C)[C@@H](C)C(=O)N[C@@H](CC(C)C)C(=O)N1C [LB02] ({CH2CO}-L[NEtG]L[dP][NMeA][Abu][NMeA]L[NMeC]-OEt; thioether N-9)", "rule not met"),
    ("CCOC(=O)[C@@H]1CSCC(=O)N[C@H](CC)C(=O)N(CC(C)C)CC(=O)N[C@@H](CC(C)C)C(=O)N2CCC[C@@H]2C(=O)N(C)[C@@H](C)C(=O)N[C@H](CC(C)C)C(=O)N(C)[C@H](C)C(=O)N[C@@H](CC(C)C)C(=O)N1C [B1-4dP] ({CH2CO}-[dAbu][Nleu]L[dP][NMeA][dL][dNMeA]L[NMeC]-OEt; thioether N-9)", "rule met"),
]
